# Tested system: αllbβ3 receptor (Homo sapiens, UniProt P05106+P08514)
# Sequence (P08514 32-1039): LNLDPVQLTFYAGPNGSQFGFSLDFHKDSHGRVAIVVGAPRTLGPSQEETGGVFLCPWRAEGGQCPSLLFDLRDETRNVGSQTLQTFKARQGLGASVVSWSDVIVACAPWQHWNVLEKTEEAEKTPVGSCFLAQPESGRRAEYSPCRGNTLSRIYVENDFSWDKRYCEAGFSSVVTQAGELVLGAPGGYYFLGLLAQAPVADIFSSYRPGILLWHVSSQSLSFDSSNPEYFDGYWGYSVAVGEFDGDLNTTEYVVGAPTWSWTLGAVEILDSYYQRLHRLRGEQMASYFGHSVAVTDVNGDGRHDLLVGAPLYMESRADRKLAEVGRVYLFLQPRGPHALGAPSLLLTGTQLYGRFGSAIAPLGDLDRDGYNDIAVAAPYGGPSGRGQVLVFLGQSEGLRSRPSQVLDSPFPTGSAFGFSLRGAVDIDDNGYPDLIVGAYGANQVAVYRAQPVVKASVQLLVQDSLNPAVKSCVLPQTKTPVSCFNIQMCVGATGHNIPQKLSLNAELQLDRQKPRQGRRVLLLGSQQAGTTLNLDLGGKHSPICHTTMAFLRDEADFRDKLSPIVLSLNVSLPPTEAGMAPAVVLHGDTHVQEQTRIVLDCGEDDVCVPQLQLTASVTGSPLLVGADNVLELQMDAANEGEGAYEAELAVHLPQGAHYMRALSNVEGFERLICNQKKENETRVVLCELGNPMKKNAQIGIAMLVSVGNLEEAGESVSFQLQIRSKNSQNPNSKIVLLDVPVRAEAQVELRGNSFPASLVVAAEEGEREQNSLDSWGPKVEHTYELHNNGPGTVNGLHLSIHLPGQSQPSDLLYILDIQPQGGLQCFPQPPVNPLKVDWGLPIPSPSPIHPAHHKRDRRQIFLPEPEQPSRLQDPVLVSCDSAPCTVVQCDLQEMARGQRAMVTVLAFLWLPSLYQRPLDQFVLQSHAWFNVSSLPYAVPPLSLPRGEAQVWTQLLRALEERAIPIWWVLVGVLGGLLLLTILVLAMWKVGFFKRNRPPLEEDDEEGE
# Sequence (P05106 27-788): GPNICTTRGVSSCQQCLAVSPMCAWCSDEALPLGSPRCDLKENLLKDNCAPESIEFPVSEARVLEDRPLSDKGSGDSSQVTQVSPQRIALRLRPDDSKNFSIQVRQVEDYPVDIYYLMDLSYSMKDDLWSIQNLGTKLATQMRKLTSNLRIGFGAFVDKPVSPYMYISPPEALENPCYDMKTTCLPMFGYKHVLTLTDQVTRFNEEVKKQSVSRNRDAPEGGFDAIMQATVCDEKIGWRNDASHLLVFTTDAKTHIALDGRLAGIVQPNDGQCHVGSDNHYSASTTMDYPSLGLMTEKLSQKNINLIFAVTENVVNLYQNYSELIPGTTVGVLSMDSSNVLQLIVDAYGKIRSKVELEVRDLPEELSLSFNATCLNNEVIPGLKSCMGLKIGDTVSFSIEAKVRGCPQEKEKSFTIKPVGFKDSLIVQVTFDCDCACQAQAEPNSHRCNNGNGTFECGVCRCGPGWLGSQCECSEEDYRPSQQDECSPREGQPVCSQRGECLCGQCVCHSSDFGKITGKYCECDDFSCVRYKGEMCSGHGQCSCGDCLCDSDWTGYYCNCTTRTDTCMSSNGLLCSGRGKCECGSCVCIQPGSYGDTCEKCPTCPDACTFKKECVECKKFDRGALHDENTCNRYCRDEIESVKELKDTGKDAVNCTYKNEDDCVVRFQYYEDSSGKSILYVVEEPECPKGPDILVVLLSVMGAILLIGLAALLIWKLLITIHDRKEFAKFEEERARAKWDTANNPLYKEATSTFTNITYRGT
# Measurement protocol: similar competitive assay with purified αllbβ3 receptor and 125I-echistatin (specificity index versus αvβ3)
# Format: binding
# Condition parameters: IC50 αllbβ3 / IC50 αvβ3
The label is rule met for SPECIFICITY αIIb β3/αvβ3 (specificity index) below 90 and rule not met for SPECIFICITY αIIb β3/αvβ3 (specificity index) equal to or exceeding 90.

>>> cat("CC(C)NC(=O)N(Cc1ccc(C(=O)NC[C@H](NC(=O)OCc2ccccc2)C(=O)O)cc1)Cc1nc2cc(Cl)ccc2[nH]1 [Example 5-95]")
"rule not met"
>>> cat("O=C(N[C@@H](CNC(=O)c1ccc(CN(Cc2nc3cc(Cl)ccc3[nH]2)C(=O)NC2CCCCC2)cc1)C(=O)O)OCc1ccccc1 [Example 5-94]")
"rule not met"
>>> cat("CC(C)NC(=O)N(Cc1ccc(C(=O)NC[C@H](NC(=O)OCc2ccccc2)C(=O)O)cc1)Cc1nc2ccccc2n1C [Example 5-93]")
"rule not met"
>>> cat("CC(=O)N(Cc1ccc(C(=O)NC[C@H](NC(=O)OC(C)(C)C)C(=O)O)cc1)Cc1nc2ccccc2[nH]1 [Example 5-61]")
"rule not met"
>>> cat("O=C(N[C@@H](CNC(=O)c1ccc(CN(Cc2nc3ccccc3[nH]2)C(=O)C(F)(F)F)cc1)C(=O)O)OCc1ccccc1 [Example 5-12]")
"rule met"

**Q:** Please check: SPECIFICITY αIIb β3/αvβ3 (specificity index) for CC(C)(C)NC(=O)N(Cc1ccc(C(=O)NC[C@H](NC(=O)OCc2ccccc2)C(=O)O)cc1)Cc1nc2ccccc2[nH]1 [Example 5-34] , strictly under 90 or not?
**A:** rule not met

**Q:** Same question for CC(NC(=O)N(Cc1ccc(C(=O)NC[C@H](NC(=O)OCc2ccccc2)C(=O)O)cc1)Cc1nc2ccccc2[nH]1)c1cccc2ccccc12 (stereo partly shown) [Example 5-36] please.
**A:** rule not met

**Q:** Same question for CCOC(=O)[C@@H](NC(=O)N(Cc1ccc(C(=O)NC[C@H](NC(=O)OCc2ccccc2)C(=O)O)cc1)Cc1nc2ccccc2[nH]1)C(C)C [Example 5-51] please.
**A:** rule not met
